Origin of measurements: ChEMBL document CHEMBL4311983

# measured.on: Cholinesterase (Homo sapiens, UniProt P06276)
# Sequence (P06276 whole entry): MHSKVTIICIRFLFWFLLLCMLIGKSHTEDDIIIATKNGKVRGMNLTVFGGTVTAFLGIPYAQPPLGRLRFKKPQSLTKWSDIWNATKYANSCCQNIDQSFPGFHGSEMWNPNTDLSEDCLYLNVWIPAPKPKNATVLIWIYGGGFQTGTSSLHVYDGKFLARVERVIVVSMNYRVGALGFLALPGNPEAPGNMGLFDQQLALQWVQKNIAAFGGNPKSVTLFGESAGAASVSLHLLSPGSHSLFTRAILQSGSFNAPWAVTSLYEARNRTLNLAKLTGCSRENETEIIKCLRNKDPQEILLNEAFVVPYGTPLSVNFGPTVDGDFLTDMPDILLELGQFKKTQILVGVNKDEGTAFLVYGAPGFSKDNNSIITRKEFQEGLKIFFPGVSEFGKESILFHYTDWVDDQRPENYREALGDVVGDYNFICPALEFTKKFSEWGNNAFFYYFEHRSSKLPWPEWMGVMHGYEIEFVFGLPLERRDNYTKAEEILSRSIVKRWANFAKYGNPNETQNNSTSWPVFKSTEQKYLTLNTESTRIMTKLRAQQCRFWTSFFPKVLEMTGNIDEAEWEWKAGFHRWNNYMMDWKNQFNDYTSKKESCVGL
# assay.protocol: Inhibition of human BuChE using butyrylthiocholine iodide as substrate incubated for 15 mins by Ellman's method

- sample.smiles: "O=C(/C=C/c1ccccc1)c1ccc(OCCCCCCN2CCCC2)cc1O"
  measured.on: "Cholinesterase (Homo sapiens, UniProt P06276)"
  IC50, µM: 15.8
